Biological target: T1, human TL1A extracellular domain with N-terminal HIS and FLAG tag (human, UniProt O95150 72-251)
T1 construct: the whole entry is named; also called TNFSF15
T1 sequence: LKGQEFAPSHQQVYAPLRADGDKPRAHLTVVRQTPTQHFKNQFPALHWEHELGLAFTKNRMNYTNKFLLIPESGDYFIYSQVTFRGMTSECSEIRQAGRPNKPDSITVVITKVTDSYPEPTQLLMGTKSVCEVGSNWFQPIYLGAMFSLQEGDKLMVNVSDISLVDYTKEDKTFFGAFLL
Assay: SPR Run 8, antibody on Protein A, TL1A 5 ug/mL, timepoint 44
PARAMETER: TL1A Binding Level (Early) (RU)
Answer in RU, number only, no unit symbol.

Fill in the blank: the reported TL1A Binding Level (Early) of 320-583 (antibody, human IgG1, name in Kabat numbering, V domains shown, full-length human IgG1, lambda) VH: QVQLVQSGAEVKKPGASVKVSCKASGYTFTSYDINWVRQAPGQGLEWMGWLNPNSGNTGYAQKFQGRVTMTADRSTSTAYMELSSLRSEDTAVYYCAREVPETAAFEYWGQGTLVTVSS VL: QSVLTQPPSVSGAPGQRVTISCTSSSSDIGAALGVHWYQQLPGTAPKLLIEGYYNRPSGVPDRFSGSKSGTSASLTITGLLPEDEGDYYCQSWDGTLSALFGGGTKLTVLG is ____.
108
